FYI, the data here is from the supplement of paper PMC8728848.

study.target: Gal(b1-4)GlcNAc(b1-2)Man(a1-3)[Man(a1-6)]Man(b1-4)GlcNAc(b1-4)GlcNAc
experiment: glycan array binding signal (z-score within array); higher = stronger binding
particulars: glycan notation: IUPAC condensed, linker removed
The full list was thinned out, with the strongest signals kept by preference.
observable: glycan array binding signal (z-score)
Answer using only a numeral; do not append any unit.

Query string: Output glycan array binding signal (z-score) of UDA (Urtica dioica), P11218 (protein) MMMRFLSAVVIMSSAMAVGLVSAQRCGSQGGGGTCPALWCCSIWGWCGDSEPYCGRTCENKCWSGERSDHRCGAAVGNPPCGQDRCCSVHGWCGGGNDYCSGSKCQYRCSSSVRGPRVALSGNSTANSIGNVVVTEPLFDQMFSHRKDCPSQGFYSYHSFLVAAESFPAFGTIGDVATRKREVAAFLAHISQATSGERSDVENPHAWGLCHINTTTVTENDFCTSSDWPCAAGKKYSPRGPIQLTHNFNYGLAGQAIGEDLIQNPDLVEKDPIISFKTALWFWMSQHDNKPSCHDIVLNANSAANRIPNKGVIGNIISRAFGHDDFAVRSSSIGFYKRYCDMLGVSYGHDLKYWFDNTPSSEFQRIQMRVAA
Result string: 4.63

Query string: Output glycan array binding signal (z-score) of CD34 (Homo sapiens), P28906 (protein) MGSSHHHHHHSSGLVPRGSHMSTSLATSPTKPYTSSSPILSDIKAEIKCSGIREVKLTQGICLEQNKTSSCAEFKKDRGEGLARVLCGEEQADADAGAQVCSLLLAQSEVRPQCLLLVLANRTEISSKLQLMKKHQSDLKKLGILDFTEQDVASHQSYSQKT
Result string: -0.73

Query string: Output glycan array binding signal (z-score) of NPA (Narcissus pseudonarcissus), C0HM45 (protein) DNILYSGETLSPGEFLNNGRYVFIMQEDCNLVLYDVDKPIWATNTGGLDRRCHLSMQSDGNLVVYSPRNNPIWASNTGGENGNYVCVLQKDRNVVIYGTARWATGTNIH
Result string: 1.71

Query string: Output glycan array binding signal (z-score) of ASAL (Allium sativum), P83886 (protein) MGRTTSSPKAMMRIATVAAILTILASTCMARNVLTNGEGLYAGQSLDVEQYKFIMQDDCNLVLYEYSTPIWASNTGVTGKNGCRAVMQRDGNFVVYDVNGRPVWASNSVRGNGNYILVLQKDRNVVIYGSDIWSTGTYRRSVGGAVVMAMNGTVDGGSVIGPVVVNQNVTAAIRKVGTGAA
Result string: 7.21

Query string: Output glycan array binding signal (z-score) of Mermaid1 (Stilbonema majum) (protein) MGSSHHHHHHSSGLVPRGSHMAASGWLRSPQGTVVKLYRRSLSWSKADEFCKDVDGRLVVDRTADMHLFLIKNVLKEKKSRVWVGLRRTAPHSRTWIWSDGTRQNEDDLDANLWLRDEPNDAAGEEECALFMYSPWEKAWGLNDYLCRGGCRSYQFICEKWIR
Result string: 2.41
